Values from ChEMBL document CHEMBL1201862

system: MDA-MB-231; test: NCI tumour cell line growth inhibition, 48 h
Activity calls are given as the source filed them. No stated cut-off is given here; in the data, active = GI50 up to about 1.1 µM and inactive = higher.
VALUE TYPE: GI50

// worked examples, GI50 included
{"COMPOUND": "CC1=CC2C(C(C)C)CC1C1C(=O)OC(=O)C21 (centres undefined)", "TEST VALUE": "> 100 µM (inactive)"}
{"COMPOUND": "COc1cc(/C=C/C=C2\\CC(C)C/C(=C\\C=C\\c3ccc(O)c(OC)c3)C2=O)ccc1O (centres undefined)", "TEST VALUE": "17 µM (inactive)"}
{"COMPOUND": "CC(=O)[C@]1(O)Cc2c(O)c3c(c(O)c2[C@@H](OC2CC(N)C(O)C(C)O2)C1)C(=O)c1c(OCc2ccccc2)cccc1C3=O (some centres undefined)", "TEST VALUE": "1.92 µM (inactive)"}

Turning to the following compound.
Q: What value of GI50 has been reported for the following compound? C#CC(O)/C=C/C(O)CCCC(O)CC#CC(O)C#CCCCCC(O)/C=C/CCCC(=O)CCCCCCCCCCCCCCCC(O)C(O)C#CC(=O)O (centres undefined)
Result: > 25 µM (inactive)

====

tested on: HOP-62; test: NCI tumour cell line growth inhibition, 48 h
Calls of active or inactive are those of the source. Rule as the data show it: active = GI50 up to about 1.1 µM and inactive = higher.
VALUE TYPE: GI50

// solved cases for GI50 follow
{"COMPOUND": "O=C1NC(N2CCCC(CO)C2)=N/C1=C\\c1ccccc1 (centres undefined)", "VALUE TYPE": "GI50", "TEST VALUE": "> 100 µM (inactive)"}
{"COMPOUND": "NC(=O)C[C@H](NC(=O)C1(NC(=O)[C@H](Cc2ccc(CP(=O)(O)O)cc2)NC(=O)C(=O)O)CCCCC1)C(=O)NCCCc1cccc2ccccc12", "VALUE TYPE": "GI50", "TEST VALUE": "> 10 µM (inactive)"}
{"COMPOUND": "CO[C@]12CC(=O)C3(C(C[C@H]4CC5CCC6=CC(=O)CC[C@]6(OC(C)=O)C5C[C@@]43C)C1)C1C[C@H]3[C@@H]4CCC5=CC(=O)CC[C@]5(OC(C)=O)[C@H]4CC[C@]3(C)C12 (some centres undefined)", "VALUE TYPE": "GI50", "TEST VALUE": "> 100 µM (inactive)"}

Q: What reported GI50 corresponds to "CC(=O)CCn1c(=S)sc2ccccc21" on HOP-62?
Result: > 100 µM (inactive)

Q: Entry to check: COCCOCCOCCC(=O)NC1CC2CCC1(C)C2(C)C (centres undefined)
Result: > 100 µM (inactive)

Q: Also C[C@]12c3c4cc(NC(=O)C(=O)NCc5ccc(-c6ccccn6)nc5)cc3Oc3cc(NC(=O)C(=O)NCc5ccc(-c6ccccn6)nc5)cc(c31)OC1C=C(NC(=O)C(=O)NCc3ccc(-c5ccccn5)nc3)C=C(O4)C12 (some centres undefined) , if possible.
Result: > 100 µM (inactive)

Q: Item: "N/C(=N\O)N/N=C\c1c(O)cc(O)cc1O"
Result: > 87.9 µM (inactive)

Q: Also "O=C(CCCN1CCC2(CC1)NC(=O)c1ccccc1O2)c1ccc(F)cc1" ?
Result: > 100 µM (inactive)

Q: Then this compound: "O=C(/C=C/c1ccsc1)c1cccs1"
Result: > 100 µM (inactive)

====

system: OVCAR-8; test: NCI tumour cell line growth inhibition, 48 h
Active and inactive are the calls of the source. Rule as the data show it: active = GI50 up to about 1.1 µM and inactive = higher.
VALUE TYPE: GI50

Consider the reported GI50 for these compounds:
{"COMPOUND": "COc1cc(/C=C2/C(=O)N(C(=O)c3ccccc3O)N=C2C)cc(OC)c1OC", "GI50": "1.67 µM (inactive)"}
{"COMPOUND": "COc1cc(/C=C2/SC(c3ccccc3)N(c3cc(Cl)ccc3Cl)C2=O)cc(OC)c1OC (stereo not given)", "GI50": "> 100 µM (inactive)"}
{"COMPOUND": "Nc1nc(Cl)c(CO)c(NCC2(CO)CCC2)n1", "GI50": "> 100 µM (inactive)"}
{"COMPOUND": "COc1cc(Br)cc2c1O[C@H]1C(=O)CC3CC21CCN3C (stereo not given in full)", "GI50": "19.7 µM (inactive)"}

Q: Need GI50 of "O=C(CO)CC(=O)C(=O)Nc1nc([N+](=O)[O-])cs1" , thanks.
Result: > 100 µM (inactive)

Q: What about "CC(C)(C)c1cc(C(P(=O)(c2ccccc2)c2ccccc2)P(=O)(c2ccccc2)c2ccccc2)cc(C(C)(C)C)c1O" ?
Result: 2.44 µM (inactive)

Q: Also, "CC(C)(C)c1ccc(O)c(C(c2ccc([N+](=O)[O-])cc2)c2cc(C(C)(C)C)ccc2O)c1" please.
Result: 2.56 µM (inactive)

Q: Quick one: COC1OC(=O)C(OC)C(OC)C1OC (stereo not given)
Result: 88.3 µM (inactive)

Q: And for "NC(=S)NS(=O)(=O)c1ccc(F)cc1" ?
Result: > 100 µM (inactive)

Q: Same question for C=CC1(C)/C(=N\O)C(C)(CC)C(=O)N1O (stereo not given) please.
Result: > 100 µM (inactive)

====

test system: BT-549; assay: NCI tumour cell line growth inhibition, 48 h
Calls of active or inactive are those of the source. Cut-off read from the data, not from the text of the source: active = GI50 up to about 1.1 µM and inactive = higher.
The following compounds are shown together with reported GI50 values.

Some solved entries appear below for comparison.
{"COMPOUND": "Cn1/c(=N\\S(=O)(=O)c2ccccc2)n(S(=O)(=O)c2ccccc2)c2ccccc21", "GI50": "> 100 µM (inactive)"}
{"COMPOUND": "Cc1cc(C)c(C#N)c(SC(=S)NC(=O)c2ccccc2)n1", "GI50": "> 100 µM (inactive)"}

Now examine the next entry.
Q: Using the record for C=C1CC=CC(C)(C)C1C/C=C(\C)C(O)CBr (stereo not drawn) , report its GI50.
Result: 97.3 µM (inactive)

====

tested on: NCI-H522; experiment: NCI tumour cell line growth inhibition, 48 h
Activity calls are given as the source filed them. Cut-off read from the data, not from the text of the source: active = GI50 up to about 1.1 µM and inactive = higher.
VALUE TYPE: GI50

Answered cases to consult:
{"COMPOUND": "O=C(Cn1cc(-c2ccccc2)nn1)NC1CCCC1", "TEST SYSTEM": "NCI-H522", "VALUE TYPE": "GI50", "TEST VALUE": "> 100 µM (inactive)"}
{"COMPOUND": "COc1ccc(NC(=O)C(C)Oc2ccc(OCC3CCCCC3)cc2)cc1 (stereo unspecified)", "TEST SYSTEM": "NCI-H522", "VALUE TYPE": "GI50", "TEST VALUE": "25.6 µM (inactive)"}
{"COMPOUND": "COc1cc(/C=C(/C#N)C(N)=O)ccc1O", "TEST SYSTEM": "NCI-H522", "VALUE TYPE": "GI50", "TEST VALUE": "> 100 µM (inactive)"}
{"COMPOUND": "COc1ccc(C(=O)c2c(-c3ccccc3NC(=O)C(F)(F)F)[nH]c3ccccc23)cc1", "TEST SYSTEM": "NCI-H522", "VALUE TYPE": "GI50", "TEST VALUE": "7.33 µM (inactive)"}
{"COMPOUND": "CN(C)c1ccc(/C=C(\\NC(=O)c2ccccc2)c2nc3ccc4c(c3[nH]2)C(=O)c2ccccc2C4=O)cc1", "TEST SYSTEM": "NCI-H522", "VALUE TYPE": "GI50", "TEST VALUE": "8.79 µM (inactive)"}

Q: Look up GI50 for this compound: "Oc1ccccc1CNCc1nc2ccccc2[nH]1"
Result: > 100 µM (inactive)

Q: // same read-out, input: "Cc1nc2c(n1Cc1ccc(F)cc1)C(=O)c1ccccc1C2=O"
Result: 10.8 µM (inactive)

Q: Can you handle "Cn1c(=O)c2nc(CCS)[nH]c2n(C)c1=O" next?
Result: > 100 µM (inactive)

====

tested on: MOLT-4; experiment: NCI tumour cell line growth inhibition, 48 h
The source made the active and inactive calls. Rule as the data show it: active = GI50 up to about 1.1 µM and inactive = higher.
VALUE TYPE: GI50

Some solved entries appear below for comparison.
{"COMPOUND": "COC(=O)c1sc(C(=O)OC)c2c1C[S+]([O-])C2", "GI50": "> 100 µM (inactive)"}
{"COMPOUND": "CC(C)(C)c1cc(C(P(=O)(c2ccccc2)c2ccccc2)P(=O)(c2ccccc2)c2ccccc2)cc(C(C)(C)C)c1O", "GI50": "2.88 µM (inactive)"}
{"COMPOUND": "CC1CC[C@]2(C(=O)O)CCC3(C)C(=CC(=O)C4[C@@]5(C)CCC(=O)C(C)(C)C5CC[C@]43C)[C@@H]2[C@H]1C (stereo not given in full)", "GI50": "11.5 µM (inactive)"}
{"COMPOUND": "CCOC(=O)NC(=S)c1ccc(O)c2ccccc12", "GI50": "36.1 µM (inactive)"}
{"COMPOUND": "O=C(Cc1ccc(Cl)cc1)Nc1ccc2oc(-c3ccccc3)nc2c1", "GI50": "> 100 µM (inactive)"}
{"COMPOUND": "CC1(C)C(=O)C(C)(C)C1=NNC(N)=S", "GI50": "> 100 µM (inactive)"}
{"COMPOUND": "COC(=O)c1cc(C)n(CN(Cc2ccccc2)Cn2nc(C(=O)OC)cc2C)n1", "GI50": "> 100 µM (inactive)"}
{"COMPOUND": "Nc1nc(N)c2ncn(CCOC(c3ccccc3)P(=O)(O)O)c2n1 (stereo not given)", "GI50": "> 100 µM (inactive)"}
{"COMPOUND": "O=Cc1ccc(-c2cc(C=O)c(-c3cccs3)[nH]2)s1", "GI50": "20.2 µM (inactive)"}

Q: Which GI50 is reported for this compound? COc1cccc(NC(=O)CC(=O)N2N=C(C)C(/N=N/c3ccc(S(=O)(=O)CCOS(=O)(=O)O)cc3)C2=O)c1 (stereo not given)
Result: 2.26 µM (inactive)
